FYI, the data here is from PubChem BioAssay (Tox21).

test method notes: qHTS assay to identify small molecule agonists of H2AX (AID 1224845)
experimental parameters: CHO-K1 phospho-H2AX Ser139 HTRF, 3 h; series mostly up to 154 µM
Results filed as inconclusive are left out. Calls of active or inactive are those of the source. Calls come from the whole dose curve; as a rule, active = well fitted activation curve with a large enough effect in the signal ratio in the repeat runs (not every such curve was filed as active); inconclusive = weak or mixed curves; inactive = flat fitted curve, though single readings scatter; the % refers to the signal ratio.
Outcomes: y (active), n (inactive)

compound | discrete label
C=CC(=O)OCCn1c(=O)n(CCOC(=O)C=C)c(=O)n(CCOC(=O)C=C)c1=O | y
Oc1c(Cl)cc(Cl)c2cccnc12 | y
COC(=O)c1cc(Cl)ccc1OC | n
O=[N+]([O-])c1ccccc1Nc1ccccc1 | n
CSc1ccc(/C=C2/C(C)=C(CC(=O)O)c3cc(F)ccc32)cc1 | n
N#CC1(c2ccc(F)cc2)CCC(=O)CC1 | n
Nc1nc2ccccc2n1Cc1ccc(F)cc1 | n
C[n+]1ccn(Cc2ccccc2)c1 | n
CCN(C(=O)N(CC)c1ccccc1)c1ccccc1 | n
CCCCN1C(=O)[C@@H]([C@H](O)C2CCCCC2)NC(=O)C12CCN(Cc1ccc(Oc3ccc(C(=O)O)cc3)cc1)CC2 | n
CCCCCCCC(=O)[O-].CCCCCCCC(=O)[O-].[Zn+2] | n
CC(C)(C)NC(=O)[C@@H]1C[C@@H]2CCCC[C@@H]2CN1C[C@@H](O)[C@H](Cc1ccccc1)NC(=O)[C@H](CC(N)=O)NC(=O)c1ccc2ccccc2n1 | y
CCCC/C=C/CCCCO | n
CCCCCCCCn1sc(Cl)c(Cl)c1=O | n
O=C(Nc1cccc([N+](=O)[O-])c1)c1cc2ccccc2cc1O | n
CC(C)(C)c1ccc(C(=O)CCCN2CCC(OC(c3ccccc3)c3ccccc3)CC2)cc1 | n
Cc1onc(-c2ccccc2Cl)c1C(=O)N[C@@H]1C(=O)N2[C@@H]1SC(C)(C)[C@@H]2C(=O)O | n
Oc1cc2ccccc2c2ccccc12 | y
O=C(Oc1cccc2cccnc12)c1ccccc1 | y
Oc1cccc2cc3cccc(O)c3c(O)c12 | n
O=Cc1cc(O)ccc1Br | n
O=C(Oc1ccccc1)c1ccccc1C(=O)Oc1ccccc1 | n
CCC1=C[C@@H]2CN(C1)Cc1c([nH]c3ccccc13)[C@@](C(=O)OC)(c1cc3c(cc1OC)N(C)[C@H]1[C@@](O)(C(=O)OC)[C@H](OC(C)=O)[C@]4(CC)C=CCN5CC[C@]31[C@@H]54)C2 | n
CCCCCCCCOc1ccccc1C(=O)Nc1ccc(C(=O)OCC[N+](C)(CC)CC)cc1 | n
NC(=NCCCCCCN=C(N)/N=C(\N)Nc1ccc(Cl)cc1)/N=C(\N)Nc1ccc(Cl)cc1 | n
Cc1c(C)c2c(c(C)c1O)CCC(C)(COc1ccc(CC3SC(=O)NC3=O)cc1)O2 (configuration not stated) | n
O=c1[nH]sc2ccccc12 | n
OCCCCCCCCCCCCBr | n
O=C(Nc1ccc(Oc2ccc(Cl)cc2)c(Cl)c1)c1cc(I)cc(I)c1O | n
CCCC(c1cc(C(C)(C)C)c(O)cc1C)c1cc(C(C)(C)C)c(O)cc1C | n
Cc1cc(=O)oc2cc(N(C)C)ccc12 | n
CNC(=O)c1ccccc1 | n
O=C(NO)C1(NS(=O)(=O)c2ccc(Oc3ccc(F)cc3)cc2)CCOCC1 | n
N#CSc1ccc(N)c([N+](=O)[O-])c1 | n
O=C1c2ccccc2Cc2ccccc21 | n
C[C@H]1[C@H]2CC[C@H]3[C@@H]4CC=C5C[C@@H](N(C)C)CC[C@]5(C)[C@H]4CC[C@]23CN1C | n
CCC(C)(C)C1CCCCC1OC(C)=O (configuration not stated) | n
COc1cccc(N)c1 | n
O=C1C=CC(=O)N1 | y
CCC(CN)=C(c1ccccc1)c1ccccc1 | n
CC(C)(C)C(=O)OCOC(=O)[C@@H]1N2C(=O)[C@@H](NC(=O)[C@H](N)c3ccccc3)[C@H]2SC1(C)C | n
NNC(=O)c1cccc(C(=O)NN)c1 | n
Cc1cc(O)c(Cl)c(C)c1Cl | n
Cc1[nH]cnc1C[C@H]1CCc2c(C)c3ccccc3n2C1=O | n
COc1c(C)c2c(c(O)c1C/C=C(\C)CCC(=O)O)C(=O)OC2 | y
CCCCCCCCCCCCc1ccc(O)cc1 | y
O=C1C=CC(=O)N1c1ccc(Cc2ccc(N3C(=O)C=CC3=O)cc2)cc1 | n
